- ASSAYED_SYSTEM: α5β3γ2 GABAA receptors (Ltk cell membranes) (Homo sapiens, UniProt P18507+P31644)
- Construct: membranes
- Sequence (P31644 32-462): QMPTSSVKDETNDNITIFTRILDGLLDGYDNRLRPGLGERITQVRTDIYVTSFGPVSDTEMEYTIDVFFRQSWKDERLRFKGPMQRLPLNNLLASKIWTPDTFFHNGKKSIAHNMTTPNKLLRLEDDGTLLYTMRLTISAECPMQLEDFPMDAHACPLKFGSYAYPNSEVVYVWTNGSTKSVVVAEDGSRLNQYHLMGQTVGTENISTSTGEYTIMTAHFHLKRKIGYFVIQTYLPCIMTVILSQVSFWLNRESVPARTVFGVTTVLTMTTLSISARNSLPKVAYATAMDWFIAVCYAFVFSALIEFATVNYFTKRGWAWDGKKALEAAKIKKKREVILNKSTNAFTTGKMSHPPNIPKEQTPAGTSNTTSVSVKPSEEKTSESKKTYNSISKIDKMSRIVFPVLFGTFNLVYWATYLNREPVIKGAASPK
- Sequence (P28472 26-473 partner): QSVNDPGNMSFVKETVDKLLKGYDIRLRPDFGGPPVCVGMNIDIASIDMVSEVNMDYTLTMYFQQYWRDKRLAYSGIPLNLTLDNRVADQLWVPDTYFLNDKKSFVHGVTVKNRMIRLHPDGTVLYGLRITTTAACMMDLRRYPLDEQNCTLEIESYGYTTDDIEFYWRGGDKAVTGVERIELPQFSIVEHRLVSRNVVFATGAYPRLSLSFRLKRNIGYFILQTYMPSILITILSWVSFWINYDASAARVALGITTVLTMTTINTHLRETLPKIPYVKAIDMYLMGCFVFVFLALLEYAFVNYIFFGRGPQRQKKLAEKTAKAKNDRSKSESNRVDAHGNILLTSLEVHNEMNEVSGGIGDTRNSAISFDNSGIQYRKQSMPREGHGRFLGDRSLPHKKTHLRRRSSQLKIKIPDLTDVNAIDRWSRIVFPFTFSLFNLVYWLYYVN
- Sequence (P18507 40-475): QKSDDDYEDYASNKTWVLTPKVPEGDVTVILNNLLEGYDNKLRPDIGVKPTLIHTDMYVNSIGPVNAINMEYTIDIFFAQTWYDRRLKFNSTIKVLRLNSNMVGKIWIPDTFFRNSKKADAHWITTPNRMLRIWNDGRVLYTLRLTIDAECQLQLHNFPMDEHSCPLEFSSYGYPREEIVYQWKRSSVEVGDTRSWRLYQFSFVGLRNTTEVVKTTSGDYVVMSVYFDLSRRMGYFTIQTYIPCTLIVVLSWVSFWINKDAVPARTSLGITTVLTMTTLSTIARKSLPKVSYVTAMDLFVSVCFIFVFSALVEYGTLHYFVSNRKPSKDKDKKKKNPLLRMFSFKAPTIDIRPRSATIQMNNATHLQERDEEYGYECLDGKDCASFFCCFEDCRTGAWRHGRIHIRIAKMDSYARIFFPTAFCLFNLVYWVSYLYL
- PROTOCOL_DETAILS: Binding activity of test compounds on GABAAR: inhibition of [3H]Ro15-1788 binding
- STUDY_CONDITIONS: GABA α5 Binding Ki Values, inhibition of [3H]Ro15-1788 binding; reported as ranges
pKi: −log10 of the molar value.
READOUT_TYPE: pKi

{"COMPOUND": "CCOC(=O)c1ncn2c1Cc1c(CN(C)Cc3ccccc3)nnn1-c1cc(OC)ccc1-2", "OBSERVED_RESULT": "> 7.00"}
{"COMPOUND": "COc1ccc2c(c1)-n1nnc(C)c1Cc1c(-c3nc(C)no3)ncn1-2", "OBSERVED_RESULT": "> 7.00"}
{"COMPOUND": "Cc1nnn2c1Cc1c(C(=O)OC(C)C)ncn1-c1ccc(F)cc1-2", "OBSERVED_RESULT": "> 7.00"}
{"COMPOUND": "COc1ccc2c(c1)-c1nnc(COc3cccc4ccccc34)n1Cc1c(-c3noc(C(C)C)n3)ncn1-2", "OBSERVED_RESULT": "> 7.00"}

INPUT: Which measured pKi value corresponds to "FC(F)=Cc1ncn2c1Cn1c(COc3ccccc3)nnc1-c1cc(Cl)ccc1-2" ?
OUTPUT: > 7.00

INPUT: Which measured pKi value corresponds to "COc1ccc2c(c1)-c1nnc(COc3cccc(F)c3)n1Cc1c(C#N)ncn1-2" ?
OUTPUT: > 7.00

INPUT: Which measured pKi value corresponds to "COc1ccc2c(c1)-n1nnc(COc3ccc(F)cc3)c1Cc1c(-c3noc(C)n3)ncn1-2" ?
OUTPUT: > 7.00

INPUT: Which measured pKi value corresponds to "C#Cc1ncn2c1Cn1c(COc3ccccc3)nnc1-c1cc(Cl)ccc1-2" ?
OUTPUT: > 7.00

INPUT: Which measured pKi value corresponds to "COCc1nnc2n1Cc1c(C3=N[C@H](CC(C)C)CO3)ncn1-c1ccc(Cl)cc1-2" ?
OUTPUT: 6.00 to 7.00

INPUT: Which measured pKi value corresponds to "CCOC(=O)c1ncn2c1Cc1c(Cc3ccccc3)nnn1-c1cc(F)ccc1-2" ?
OUTPUT: > 7.00

INPUT: Which measured pKi value corresponds to "COCc1nnc2n1Cc1c(-c3nc(-c4ccccc4)co3)ncn1-c1ccc(Cl)cc1-2" ?
OUTPUT: > 7.00

INPUT: Which measured pKi value corresponds to "COCc1nnc2n1Cc1c(C3=N[C@@H](c4cccc(C(F)(F)F)c4)CO3)ncn1-c1ccc(Cl)cc1-2" ?
OUTPUT: 6.00 to 7.00

---

As shown below, each of these compounds has a reported Ki value.
- ASSAYED_SYSTEM: α5β3γ2 GABAA receptors (Ltk cell membranes) (Homo sapiens, UniProt P18507+P31644)
- Construct: membranes
- PROTOCOL_DETAILS: Binding activity of test compounds on GABAAR: inhibition of [3H]Ro15-1788 binding
- STUDY_CONDITIONS: GABA α5 Binding Ki Values, inhibition of [3H]Ro15-1788 binding; reported as ranges

Worked set:
{"SMILES_STRUCTURE": "CCN(CC)Cc1nnn2c1Cc1c(C#N)ncn1-c1ccc(OC)cc1-2", "Ki": "> 1 µM"}
{"SMILES_STRUCTURE": "CCOC(=O)c1ncn2c1Cc1c(Cc3ccccc3)nnn1-c1ccccc1-2", "Ki": "< 0.1 µM"}
{"SMILES_STRUCTURE": "COc1ccc2c(c1)-n1nnc(-c3ccccc3)c1Cc1c(-c3nc(C)no3)ncn1-2", "Ki": "0.1 to 1 µM"}
{"SMILES_STRUCTURE": "COCc1nnc2n1Cc1c(-c3ncco3)ncn1-c1ccc(Cl)cc1-2", "Ki": "< 0.1 µM"}
{"SMILES_STRUCTURE": "Cc1noc(-c2ncn3c2Cc2cnnn2-c2cc(Cl)ccc2-3)n1", "Ki": "< 0.1 µM"}

INPUT: Which measured Ki value corresponds to "COCc1nnc2n1Cc1c(-c3nc(C)no3)ncn1-c1ccc(-c3cccnc3)cc1-2" ?
OUTPUT: 0.1 to 1 µM

INPUT: Which measured Ki value corresponds to "COc1ccc2c(c1)-c1nnc(COc3ccccc3)n1Cc1c(-c3noc(C)n3)ncn1-2" ?
OUTPUT: < 0.1 µM

INPUT: Which measured Ki value corresponds to "CCOC(=O)c1ncn2c1Cn1c(Oc3cccc(OC)c3)nnc1-c1cc(OC)ccc1-2" ?
OUTPUT: < 0.1 µM

---

- ASSAYED_SYSTEM: α5β3γ2 GABAA receptors (Ltk cell membranes) (Homo sapiens, UniProt P18507+P31644)
- Construct: membranes
- PROTOCOL_DETAILS: Binding activity of test compounds on GABAAR: inhibition of [3H]Ro15-1788 binding
- STUDY_CONDITIONS: GABA α5 Binding Ki Values, inhibition of [3H]Ro15-1788 binding; reported as ranges
READOUT_TYPE: Ki

Worked set:
{"SMILES_STRUCTURE": "COCc1nnn2c1Cc1c(C3=N[C@@H](Cc4ccccc4)CO3)ncn1-c1ccc(Cl)cc1-2", "Ki": "100 to 1000 nM"}
{"SMILES_STRUCTURE": "CC1(C)COC(c2ncn3c2Cc2cnnn2-c2cc(Cl)ccc2-3)=N1", "Ki": "< 100 nM"}
{"SMILES_STRUCTURE": "COCc1nnc2n1Cc1c(-c3nc(-c4ccccc4F)co3)ncn1-c1ccc(Cl)cc1-2", "Ki": "< 100 nM"}
{"SMILES_STRUCTURE": "CCOC(=O)c1ncn2c1Cc1c(C)nnn1-c1cc(F)ccc1-2", "Ki": "< 100 nM"}

INPUT: # value lookup — system α5β3γ2 GABAA receptors (Ltk cell membranes) (Homo sapiens, UniProt P18507+P31644), readout Ki, item "Cc1nnn2c1Cc1c(-c3cnn(C)c3)ncn1-c1ccc(F)cc1-2"
OUTPUT: > 1000 nM

INPUT: # value lookup — system α5β3γ2 GABAA receptors (Ltk cell membranes) (Homo sapiens, UniProt P18507+P31644), readout Ki, item "CCOC(=O)c1ncn2c1Cc1c(C#Cc3ccccc3)nnn1-c1cc(OC)ccc1-2"
OUTPUT: 100 to 1000 nM

INPUT: # value lookup — system α5β3γ2 GABAA receptors (Ltk cell membranes) (Homo sapiens, UniProt P18507+P31644), readout Ki, item "CC(C)OCc1nnc2n1Cc1c(C3=N[C@@H](c4ccccc4)CO3)ncn1-c1ccc(Cl)cc1-2"
OUTPUT: < 100 nM

INPUT: # value lookup — system α5β3γ2 GABAA receptors (Ltk cell membranes) (Homo sapiens, UniProt P18507+P31644), readout Ki, item "COCc1nnc2n1Cc1c(C3=N[C@@H](c4ccccc4C)CO3)ncn1-c1ccc(Cl)cc1-2"
OUTPUT: < 100 nM

---

- ASSAYED_SYSTEM: α5β3γ2 GABAA receptors (Ltk cell membranes) (Homo sapiens, UniProt P18507+P31644)
- Construct: membranes
- PROTOCOL_DETAILS: Binding activity of test compounds on GABAAR: inhibition of [3H]Ro15-1788 binding
- STUDY_CONDITIONS: GABA α5 Binding Ki Values, inhibition of [3H]Ro15-1788 binding; reported as ranges
READOUT_TYPE: Ki

{"MOLECULE": "CCOCc1nnc2n1Cc1c(C3=N[C@H](c4ccccc4)CO3)ncn1-c1ccc(Cl)cc1-2 [Compound 271]", "OBSERVED_RESULT": "< 100 nM"}
{"MOLECULE": "COc1ccc2c(c1)-n1nnc(CN3CCCC3)c1Cc1c(C#N)ncn1-2 [Compound 250]", "OBSERVED_RESULT": "> 1000 nM"}
{"MOLECULE": "COCc1nnc2n1Cc1c(C3=N[C@H](c4ccccc4)CO3)ncn1-c1ccc(Cl)cc1-2 [Compound 263]", "OBSERVED_RESULT": "< 100 nM"}
{"MOLECULE": "C#Cc1ncn2c1C(Cc1ccccc1)c1cnnn1-c1cc(OC)ccc1-2 (centres unmarked) [Compound 449]", "OBSERVED_RESULT": "> 1000 nM"}
{"MOLECULE": "CCOC(=O)c1ncn2c1Cn1c(COC)nnc1-c1cc(OC)ccc1-2 [Compound 103]", "OBSERVED_RESULT": "< 100 nM"}
{"MOLECULE": "N#Cc1ncn2c1Cn1c(COc3ccccc3)nnc1-c1cc(F)ccc1-2 [Compound 157]", "OBSERVED_RESULT": "< 100 nM"}

INPUT: Which measured Ki value corresponds to Cc1nnn2c1Cc1c(C#N)ncn1-c1ccc(F)cc1-2 [Compound 116] ?
OUTPUT: > 1000 nM

INPUT: Which measured Ki value corresponds to COc1ccc2c(c1)-n1nnc(COc3cccc(F)c3)c1Cc1c(-c3noc(C)n3)ncn1-2 [Compound 168] ?
OUTPUT: < 100 nM

INPUT: Which measured Ki value corresponds to COc1ccc2c(c1)-n1nncc1Cc1c(C#Cc3cccnc3)ncn1-2 [Compound 407] ?
OUTPUT: < 100 nM
